# assayed target: T1, recombinant human ErbB2/Fc chimera (human, UniProt P04626 23-652)
# T1 construct: bought from R&D Systems; also called rhErbB2-Fc; rhErb2-Fc; Fc part of the bought chimera not given; not described
# procedure details: SPR (Biacore 3000), periplasmic extract over immobilised rhErbB2-Fc
recorded endpoint: koff (s⁻¹)

binder	reading unit	koff
2C1 (VHH, C-term myc-His6 tag) VHH: EVQLVESGGGLVQPGGSLRLSCVASGFSLDDYGMTWVRQAPGKGLEWVSSINWSGTHTDYTDSVKGRFTISRDNAKNTLFLQMNSLTPEDTAVYYCNQGWKIIPTDRRGHGTQVTVSS	s⁻¹	0.00118
2B3 (VHH, C-term myc-His6 tag) VHH: EVQLVESGGGLVQPGGSLRLSCVASGFSLDDYGMTWVRQAPGKGLEWVSSINWSGTHTDCADSVKGRFTISRDNAKNTLFLQMNSLTPEDTAVYYCNQGWKIIPTDRRGHGTQVTVSS	s⁻¹	0.00125
2A5 (VHH, C-term myc-His6 tag) VHH: EVQLVESGGGLVQPGGSLRLSCATSGFTFDDYAMTWVRQAPGKGLEWVSSINWSGTHTDYTDSVKGRFTISRNNANNTLYLQMNSLKSEDTAVYYCAKNWGDAGTTWFEKSGSAGQGTQVTVSS	s⁻¹	0.00142
2F3 (VHH, C-term myc-His6 tag) VHH: EVQLVESGGSLVQPGGSLRLSCAASGFTFDDYAMTWVRQAPGKGLEWVSSINWSGTHTDYTGSVKGRFTISRNNANNTLYLQMNSLKSDDTAVYYCAKNWGDAGTTWFEKSGSAGPGTQVTVSS	s⁻¹	0.00153
